Test system: MS2 coat protein
Experiment: apparent KD of MS2 coat protein; designed switch direction (-1 OFF switch, 1 ON switch): 1; higher = weaker reporter binding
Conditions: Eterna round: R95; input ligand: microRNA oligo, concentration not stated
observation-type: apparent KD of MS2 coat protein (nM)
Quick note: give the figure in nM, leave out the unit.

Example entries begin here.
seq="UGGUAACAUGAGGAUCACCCAUGUCAAAUGAAUCGAGGAUAUGGGAACUAACAACACAAACUAGAAGGCGAACUUG [Altered State 1-9 - Jieux - Same State 1] (puzzle: Same State 1)" observation_type="apparent KD of MS2 coat protein" experimental_result=39.6
seq="AUAAAACAUGAGGAUCACCCAUGUCAACAAAGUCGAGGAUAUGGGCAAAGAAAAUAAUAACCAGAAGGCGAAUAAU [salish99_ss1_r3_054] (puzzle: Same State 1)" observation_type="apparent KD of MS2 coat protein" experimental_result=389

Please examine the following record next.
Q) What measured apparent KD of MS2 coat protein goes with UGUGUCAUAGGUUUUUUAGCUCGUCUGAUACAUGAGGAUCACCCAUGUUAUAGCCCUGUGCUUGCGCAGGGCUGAGG [JL shm-2.xx] (puzzle: Sensor for hsa-mir-208a) ?
A) 36.6

---

System: MS2 coat protein
Assay: apparent KD of MS2 coat protein, switch OFF state (with FMN for OFF switches, without FMN for ON switches); designed switch direction (-1 OFF switch, 1 ON switch): 1; higher = weaker reporter binding
Settings: FMN input: 0 or 200 uM; Eterna round: R93 (includes R88 designs)
Short version: apparent KD of MS2 coat protein at least 80 nM is true, less is false.

Examples from the recorded data:
seq="AUGAGGAAGAGAGAGGAUAUCCAAAGGAAAACAUGAGGAUCACCCAUGUAAAAGGUAGGAAAUUGGGAGAAGGCUCAAGAGAGAG [salish99-ss2-065]" subject_of_test="MS2 coat protein" cat=false
seq="AACAAACAUGAGGAUCACCCAUGUAAACAAACAUGAGGAUAUAUAACACAACAUCAACAGAUAGAAGGCAUAAAUA [JR_SS001_Sub1202]" subject_of_test="MS2 coat protein" cat=true
seq="GAAAAACAUGAGGAUCACCCAUGUGAAAAUAUGGGAGGAUAUACUAAGACGAAAGUCGAGGUAGAAGGCCUAAAAG [Same State 1.4h (Mat - Mod of Eli - )]" subject_of_test="MS2 coat protein" cat=true
seq="CAAACAACAACACAGGAUAUACAUAUAAUAACAUGAGGAUCACCCAUGUAAGGCAAAAAUAAGCUGUAGAAGGGUGAACACACAA [Default title]" subject_of_test="MS2 coat protein" cat=false
seq="AGAAAACAUGAGGAUCACCCAUGUGAUAACAUGGGAGGAUAUACGAGGACGAGAGUCAAGGUAGAAGGCCUAAAGA [Garnet 72]" subject_of_test="MS2 coat protein" cat=true

Now for a further sequence.
Q) Could you please find out whether UAUCAUUACACGAAGGAUAUCGAUAAUUGAACAUGAGGAUCACCCAUGUGCCAUCCCUUACAGUUCGAGAAGGUCGAGGGUGAAG [JR_SS002_Sub707] has apparent KD of MS2 coat protein that meets 80 nM or exceeds it?
A) true

---

Tested on: MS2 coat protein
Experiment: apparent KD of MS2 coat protein; designed switch direction (-1 OFF switch, 1 ON switch): 1; higher = weaker reporter binding
Details: Eterna round: R95; input ligand: microRNA oligo, concentration not stated
observation-type: apparent KD of MS2 coat protein (µM)
Quick note: give the figure in µM, leave out the unit.

Example entries begin here.
seq="UAGAGAGGAAGCGAGGAUAUCGUGUUAGGUACAUGAGGAUCACCCAUGUUGUAGGUAGAGGUAGGCGAGAAGGCGCAGGAGAGGA [JR_SS2_Sub092] (puzzle: Same State 2)" subject_of_test="MS2 coat protein" observation_type="apparent KD of MS2 coat protein" measurement_units=µM experimental_result=0.0376
seq="UACAAUCUAUCUGAGGAUAUCAUGAUCAUAACAUGAGGAUCACCCAUGUGCAGGAAAACUGCAUAUGAGAAGGCAGAUAGAUUGU [salish99_ss2_r3_073] (puzzle: Same State 2)" subject_of_test="MS2 coat protein" observation_type="apparent KD of MS2 coat protein" measurement_units=µM experimental_result=0.154
seq="GAGUAGGAGUUACAGGAUAUAUGGAGGAGGACAUGAGGAUCACCCAUGUGAGAGAUGAGAGGAGGAUAGAAGGGUAAGGGAGUAA [JR_SS2_Sub028] (puzzle: Same State 2)" subject_of_test="MS2 coat protein" observation_type="apparent KD of MS2 coat protein" measurement_units=µM experimental_result=0.0206
seq="UUAAGCCACGGGCAGGAUAUGUAUUAAAGUACAUGAGGAUCACCCAUGUGCAGGUGUAACACCUGACAGAAGGGCCAAUCGCGGC [Soondi - 3] (puzzle: Same State 2)" subject_of_test="MS2 coat protein" observation_type="apparent KD of MS2 coat protein" measurement_units=µM experimental_result=0.068
seq="CUGUCUACAGGUGUCUUUGCUCGUUUUAUACAUGAGGAUCACCCAUGUUAUAGCCCGGUGCUUGCGCUGGGCUGAUU [JL ViennaUCT Tearor mod 8] (puzzle: Sensor for hsa-mir-208a)" subject_of_test="MS2 coat protein" observation_type="apparent KD of MS2 coat protein" measurement_units=µM experimental_result=0.0141
seq="ACGCAGCUGGGUGAGGAUAUCGGUGGUAAAACAUGAGGAUCACCCAUGUCCGAAGCUCGGACCUCCGAGAAGGCGCCCGGCUGCG [Soinraesar Omei Mod 1] (puzzle: Same State 2)" subject_of_test="MS2 coat protein" observation_type="apparent KD of MS2 coat protein" measurement_units=µM experimental_result=0.00525

Please examine the following record next.
Q) Request - read-out apparent KD of MS2 coat protein | tested on MS2 coat protein | sequence GUUAUACAUGAGGAUCACCCAUGUCAAUGUAGUCGAGGAUAUGGGCAGCUAUGUAGCGUACUAGAAGGCGAAGAGU [JL-ss1-3.13 ViennaUCT mod] (puzzle: Same State 1)
A) 0.0431
